Here the recorded solubility Finsolv TN is given for each entry.
assay: Determination of the solubility in cosmetic solvents; assay type: physicochemical; conditions: C12-15 Alkylbenzoate; saturated solution stirred 7 days at room temperature; concentration by HPLC
Respond with the figure and its unit, in that order.

Compound | solubility Finsolv TN
Cc1cc(COCCC(C)C)c(O)c(-n2nc3ccc(Cl)cc3n2)c1 [Example 6] | 19%

[Q] Entry Cc1cc(COCCC(C)C)c(O)c(-n2nc3ccccc3n2)c1 [Example 4] : reported solubility Finsolv TN = ?
[A] 37%

[Q] Entry CCCCC(CC)C(=O)OCc1cc(C)cc(-n2nc3ccccc3n2)c1O (centres unmarked) [Example 7] : reported solubility Finsolv TN = ?
[A] 42%

[Q] Entry Cc1cc(COC(=O)CC(C)C)c(O)c(-n2nc3ccccc3n2)c1 [Example 8] : reported solubility Finsolv TN = ?
[A] 8%

[Q] Entry Cc1cc(COCc2cc(C)cc(-n3nc4ccccc4n3)c2O)c(O)c(-n2nc3ccccc3n2)c1 [Example 9] : reported solubility Finsolv TN = ?
[A] 0.02%

Attribution: patent US8895754B2
